Biological target: RUP3 receptor (Canis lupus familiaris, UniProt A0A8I3QZL6)
Sequence (A0A8I3QZL6 1-335): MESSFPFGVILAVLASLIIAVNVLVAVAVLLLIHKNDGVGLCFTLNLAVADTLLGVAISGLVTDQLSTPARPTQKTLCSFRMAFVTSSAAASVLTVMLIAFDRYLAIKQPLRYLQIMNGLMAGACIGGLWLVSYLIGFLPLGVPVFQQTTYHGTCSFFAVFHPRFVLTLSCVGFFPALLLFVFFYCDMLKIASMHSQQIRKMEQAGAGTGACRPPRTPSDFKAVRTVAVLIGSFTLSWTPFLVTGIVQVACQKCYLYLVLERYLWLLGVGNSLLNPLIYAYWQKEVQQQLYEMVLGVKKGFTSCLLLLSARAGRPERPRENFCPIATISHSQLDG
Assay: RUP3 dose response in melanophores (dog RUP3)
measurement_type: EC50 (nM)

sample_smiles | numeric_result
Cc1nc(S(C)(=O)=O)ccc1Nc1ncnc(OC2CCN(C(=O)OC(C)C)CC2)c1C | 8

###

Target: RUP3 receptor (Rattus norvegicus)
Sequence (Q7TQN8 whole entry): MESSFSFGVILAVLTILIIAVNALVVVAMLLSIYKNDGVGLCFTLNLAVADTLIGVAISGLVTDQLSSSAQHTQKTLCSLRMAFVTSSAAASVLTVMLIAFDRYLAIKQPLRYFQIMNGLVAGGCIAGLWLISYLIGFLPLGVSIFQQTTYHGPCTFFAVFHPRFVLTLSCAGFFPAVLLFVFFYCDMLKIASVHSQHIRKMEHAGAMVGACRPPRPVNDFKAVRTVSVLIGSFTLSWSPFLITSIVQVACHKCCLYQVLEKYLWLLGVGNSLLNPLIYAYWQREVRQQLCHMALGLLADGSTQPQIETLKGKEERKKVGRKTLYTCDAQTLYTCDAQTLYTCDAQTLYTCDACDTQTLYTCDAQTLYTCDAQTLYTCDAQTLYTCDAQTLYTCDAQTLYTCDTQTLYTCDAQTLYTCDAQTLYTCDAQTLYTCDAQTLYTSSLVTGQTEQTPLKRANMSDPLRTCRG
Assay: RUP3 dose response in melanophores (rat RUP3)

molecule | unit_name | EC50
Cc1nc(S(C)(=O)=O)ccc1Nc1ncnc(OC2CCN(C(=O)OC(C)C)CC2)c1C [Formula (I)] | nM | 42

###

Target: RUP3 receptor (Mus musculus, UniProt Q7TQP3)
Construct: expressed in transfected cells; host or cells: melanophores, electroporated
Sequence (Q7TQP3 whole entry): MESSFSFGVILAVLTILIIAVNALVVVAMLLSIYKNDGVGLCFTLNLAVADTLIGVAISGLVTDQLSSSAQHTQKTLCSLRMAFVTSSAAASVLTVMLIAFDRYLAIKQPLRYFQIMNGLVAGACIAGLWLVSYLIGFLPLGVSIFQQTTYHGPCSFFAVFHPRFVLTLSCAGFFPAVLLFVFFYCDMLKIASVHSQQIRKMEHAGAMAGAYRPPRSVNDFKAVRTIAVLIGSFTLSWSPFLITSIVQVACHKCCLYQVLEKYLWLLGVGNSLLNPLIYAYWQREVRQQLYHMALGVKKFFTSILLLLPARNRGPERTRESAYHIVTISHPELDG
Assay: RUP3 dose response in melanophores (mouse RUP3)
Assay type: cell-based
Description: Melanophores are maintained in culture as reported by Potenza, M. N. and Lerner, M. R., in Pigment Cell Research, Vol. 5, 372-378, 1992 and transfected with the RUP3 expression vector (pCMV) using electroporation. Following electroporation, the transfected cells are plated into 96 well plates for the assay. […] The net effect of this is a significant decrease in the absorbance reading of the cell monolayer in the well, measured at 600-650 nM. […] At this point a baseline absorbance reading is collected. […]

sample_smiles | unit_name | EC50
Cc1nc(S(C)(=O)=O)ccc1Nc1ncnc(OC2CCN(C(=O)OC(C)C)CC2)c1C | nM | 43
